These compounds were tested on NDM-1 (Klebsiella pneumoniae, UniProt C7C422); IC50 is the recorded read-out.
Sequence (C7C422 29-270, looked up, species assumed): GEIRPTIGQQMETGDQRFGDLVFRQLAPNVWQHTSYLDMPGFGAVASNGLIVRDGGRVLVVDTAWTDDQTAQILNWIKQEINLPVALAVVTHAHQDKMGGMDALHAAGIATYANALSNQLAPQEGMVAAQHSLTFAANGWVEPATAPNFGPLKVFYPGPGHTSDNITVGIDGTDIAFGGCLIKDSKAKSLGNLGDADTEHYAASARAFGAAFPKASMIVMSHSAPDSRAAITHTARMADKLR
Property: IC50 (nM)

Compound: O=[N+]([O-])[O-].O=[N+]([O-])[O-].O=[N+]([O-])[O-].[Bi+3] [Bi(NIT)3, bismuth nitrate]
Recorded Measurement: 700
--
Compound: CC(C)([S][Bi+][S]C(C)(C)C(N)C(=O)O)C(N)C(=O)O (stereo not drawn)
Recorded Measurement: 2800
--
Compound: CC(=O)N[C@@H](C[S][Bi]([S]C[C@H](NC(C)=O)C(=O)O)[S]C[C@H](NC(C)=O)C(=O)O)C(=O)O
Recorded Measurement: 1650

###

Target Or System: IMP-4
Protocol Description: IC50 enzyme inhibition assay
Format: biochemical
Cond: IMP-4 50 nM, 1 h preincubation, MER substrate
Reported IC50 values are given for each entry in this list.

Compound: O=[N+]([O-])[O-].O=[N+]([O-])[O-].O=[N+]([O-])[O-].[Bi+3] [Bi(NIT)3, bismuth nitrate]
Measurement Unit: nM
IC50: 990
//
Compound: CC(C)([S][Bi+][S]C(C)(C)C(N)C(=O)O)C(N)C(=O)O (stereo not drawn)
Measurement Unit: nM
IC50: 1000
//
Compound: CC(=O)N[C@@H](C[S][Bi]([S]C[C@H](NC(C)=O)C(=O)O)[S]C[C@H](NC(C)=O)C(=O)O)C(=O)O
Measurement Unit: nM
IC50: 2800

###

Reported MIC of MER in combination with compound at 32 µg mL^-1 values are given for each entry in this list.
System: VIM-BL21 (VIM-2^+)
Protocol Description: microbe, parasite or virus in culture
Type: cell-based, E. coli
Cond: VIM-BL21
Protocol: MIC values were determined by standard broth micro-dilution method (Clinical and Laboratory Standards Institute (CLSI) M100-S20, 2010)[64]. Briefly, bacterial cells were cultured in LB broth overnight at 37 °C at 250 rpm and the OD was measured at 600 nm (OD600). […] The MIC was determined as the lowest concentration of a drug that could inhibit the growth of microorganism by both visual reading and OD reading at 600 nm using a microtiter plate reader. […]
Property: MIC of MER in combination with compound at 32 µg mL^-1

Molecule: CC(C)([S][Bi+][S]C(C)(C)C(N)C(=O)O)C(N)C(=O)O (stereo not shown)
Recorded Measurement: 1 µg/mL

Molecule: C[C@H](C[S][Bi+][S]C[C@@H](C)C(=O)N1CCC[C@H]1C(=O)[O-])C(=O)N1CCC[C@H]1C(=O)[O-]
Recorded Measurement: 0.5 µg/mL

Molecule: CC(=O)N[C@@H](C[S][Bi]([S]C[C@H](NC(C)=O)C(=O)O)[S]C[C@H](NC(C)=O)C(=O)O)C(=O)O
Recorded Measurement: 0.5 µg/mL

Molecule: O=[N+]([O-])[O-].O=[N+]([O-])[O-].O=[N+]([O-])[O-].[Bi+3] [Bi(NIT)3, bismuth nitrate]
Recorded Measurement: 1 µg/mL

###

These compounds were tested on VIM-2 (Escherichia coli, UniProt Q5U7L7); IC50 is the recorded read-out.

Compound: CC(C)([S][Bi+][S]C(C)(C)C(N)C(=O)O)C(N)C(=O)O (stereo not drawn) [Bi(PCM)2]
IC50 [nM]: 3710

Compound: CC(=O)N[C@@H](C[S][Bi]([S]C[C@H](NC(C)=O)C(=O)O)[S]C[C@H](NC(C)=O)C(=O)O)C(=O)O [Bi(NAC)3]
IC50 [nM]: 2650

Compound: O=[N+]([O-])[O-].O=[N+]([O-])[O-].O=[N+]([O-])[O-].[Bi+3] [Bi(NIT)3, bismuth nitrate]
IC50 [nM]: 1200

###

Reported MBC of MER in combination with compound at 32 µg mL^-1 values are given for each entry in this list.
Test system: VIM-BL21 (VIM-2^+)
Protocol Description: microbe, parasite or virus in culture
Format: cell-based, E. coli
Cond: VIM-BL21
Property: MBC of MER in combination with compound at 32 µg mL^-1 (µg/mL)

Molecule: C[C@H](C[S][Bi+][S]C[C@@H](C)C(=O)N1CCC[C@H]1C(=O)[O-])C(=O)N1CCC[C@H]1C(=O)[O-] [Bi(CPL)2]
Measurement Unit: µg/mL
Recorded Measurement: 1
//
Molecule: CC(=O)N[C@@H](C[S][Bi]([S]C[C@H](NC(C)=O)C(=O)O)[S]C[C@H](NC(C)=O)C(=O)O)C(=O)O [Bi(NAC)3]
Measurement Unit: µg/mL
Recorded Measurement: 1
//
Molecule: CC(C)([S][Bi+][S]C(C)(C)C(N)C(=O)O)C(N)C(=O)O (stereo not shown) [Bi(PCM)2]
Measurement Unit: µg/mL
Recorded Measurement: 2
//
Molecule: O=[N+]([O-])[O-].O=[N+]([O-])[O-].O=[N+]([O-])[O-].[Bi+3] [Bi(NIT)3, bismuth nitrate]
Measurement Unit: µg/mL
Recorded Measurement: 2
